# System: cell cultures
Classify as follows. Reported daggl greater than or equal to 9 pg/dL: yes (1). Reported daggl below: no (0).

Here's what some known entries look like.
{"Molecule": "O=C([O-])[O-].[Tl+].[Tl+]", "Target Entity": "cell cultures", "Answer Label": "yes (1)"}
{"Molecule": "O=[N+]([O-])[O-].O=[N+]([O-])[O-].O=[N+]([O-])[O-].[Ga+3] [Ga(NO3)3, gallium trinitrate]", "Target Entity": "cell cultures", "Answer Label": "yes (1)"}
{"Molecule": "N.N.[Cl][Pt][Cl] [cisplatin (cis-Pt(N H3)2 Cl2), reference compound]", "Target Entity": "cell cultures", "Answer Label": "no (0)"}

Does daggl meet or surpass 9 pg/dL for `[Na+].[O]=[V](=[O])[O-]` ?
no (0)

----------
# Tested on: mice
# Setup Conditions: mouse, in vivo
So basically: is dCL/ daggl under 5? Then criterion met. Not under? Then criterion not met.

{"Compound": "O=C([O-])[O-].[Tl+].[Tl+]", "Target Entity": "mice", "Answer Label": "criterion met"}
{"Compound": "O=C([O-])[O-].O=C([O-])[O-].O=C([O-])[O-].[Tl+3].[Tl+3]", "Target Entity": "mice", "Answer Label": "criterion met"}
{"Compound": "O=[N+]([O-])[O-].O=[N+]([O-])[O-].O=[N+]([O-])[O-].[Ga+3] [Ga(NO3)3, gallium trinitrate]", "Target Entity": "mice", "Answer Label": "criterion not met"}

Next, consider the following compound.
Consider the compound `[Na+].[O]=[V](=[O])[O-]` . Is its dCL/ daggl strictly less than 5?
criterion met

----------
Give DCL for every item shown.
# Tested on: mice
# Setup Conditions: mouse, in vivo
Give bare numbers, in µg/dL.

Here is how some molecules turned out for DCL.
{"Molecule": "O=C([O-])[O-].[Tl+].[Tl+]", "Target Entity": "mice", "Result Unit": "µg/dL", "DCL": 21}
{"Molecule": "N.N.[Cl][Pt][Cl] [cisplatin (cis-Pt(N H3)2 Cl2), reference compound]", "Target Entity": "mice", "Result Unit": "µg/dL", "DCL": 3.5}
{"Molecule": "[Na+].[O]=[V](=[O])[O-]", "Target Entity": "mice", "Result Unit": "µg/dL", "DCL": 2.0}
{"Molecule": "O=[N+]([O-])[O-].O=[N+]([O-])[O-].O=[N+]([O-])[O-].[Ga+3] [Ga(NO3)3, gallium trinitrate]", "Target Entity": "mice", "Result Unit": "µg/dL", "DCL": 35}

Query (molecule): `O=C([O-])[O-].O=C([O-])[O-].O=C([O-])[O-].[Tl+3].[Tl+3]` ; field requested: DCL
19

----------
# Tested on: mice
# Setup Conditions: mouse, in vivo
Readout Name: Therapeutic ratio × 10^-7

Record Therapeutic ratio × 10^-7 per entry; entries follow.
1. O=[N+]([O-])[O-].O=[N+]([O-])[O-].O=[N+]([O-])[O-].[Ga+3] [Ga(NO3)3, gallium trinitrate]
2. O=[N+]([O-])[O-].O=[N+]([O-])[O-].[Zn+2]
3. O=C([O-])[O-].O=C([O-])[O-].O=C([O-])[O-].[Tl+3].[Tl+3]
4. O=S(=O)(O)[S-].O=S(=O)(O)[S-].[Au].[Na+].[Na+].[Na+] [AuH2Na3O6S4, aurothiosulfate]
5. [Cl][Pt-2]([Cl])([Cl])([Cl])([Cl])[Cl].[NH4+].[NH4+] [(NH4)2[PtCl6], ammonium hexachloroplatinate (IV)]
6. N.N.[Cl][Pt][Cl] [cisplatin (cis-Pt(N H3)2 Cl2), reference compound]

1. 9.2 × 10^-7
2. 50 × 10^-7
3. 14.6 × 10^-7
4. 50 × 10^-7
5. 5 × 10^-7
6. 7 × 10^-7

Record Therapeutic ratio × 10^-7 per entry; entries follow.
1. O=C([O-])[O-].[Tl+].[Tl+]
2. O=[N+]([O-])[O-].[Ag+]
3. O=[N+]([O-])[O-].O=[N+]([O-])[O-].[Cu+2]
4. [Na+].[O]=[V](=[O])[O-]

["13.1 × 10^-7", "180 × 10^-7", "25 × 10^-7", "67 × 10^-7"]
